assay: qHTS of pediatric cancer cell lines to identify multiple opportunities for drug repurposing: Primary screen for Rh41 cells (AID 1347108); conditions: Rh41 rhabdomyosarcoma viability, CellTiter-Glo luminescence, 48 h; series mostly up to 46 µM; further: nearly all actives have a fitted effect of over 70% in size
Results filed as inconclusive are left out. Active and inactive are the calls of the source. The call rests on the fitted dose curve; in most records, active means well fitted cell-killing curve with a large enough effect; inconclusive means small, poorly fitted or top-dose-only effect; inactive means no such curve, though single readings can be large or run the other way.
Outcome codes: active, inactive

INSERT INTO measurements (compound, group_label) VALUES
  ('O=C1CC2(CCCC2)CC(=O)N1', 'inactive'),
  ('NCC(=O)O', 'inactive'),
  ('CC(NN)c1ccccc1 (stereo not given)', 'inactive'),
  ('C/C(=N\O)[C@@H](C)NCC(C)(C)CN[C@H](C)/C(C)=N/O', 'inactive'),
  ('C[N+]1(C)CCC(OC(=O)C(O)(c2ccccc2)C2CCCC2)C1 (stereo not given)', 'inactive'),
  ('CCC(=O)O[C@]1(C(=O)COC)[C@@H](C)C[C@H]2[C@@H]3CCC4=CC(=O)C=C[C@]4(C)C3(F)[C@@H](O)C[C@@]21C (stereo not given in full)', 'inactive'),
  ('O=C1[C@@H]2[C@H]3CC[C@H](C3)[C@@H]2C(=O)N1CCCCN1CCN(c2ncccn2)CC1', 'inactive'),
  ('Nc1ccc([N+](=O)[O-])c(C(F)(F)F)c1', 'inactive'),
  ('COc1ccccc1N1CCN(CC(O)COc2cc(OC)c(OC)c(OC)c2)CC1 (stereo not given)', 'inactive'),
  ('CCOC(=O)NNc1nncc2ccccc12', 'inactive'),
  ('Cc1cnc(NS(=O)(=O)c2ccc(N)cc2)nc1', 'inactive'),
  ('COc1ccc2nc(SCc3ncc(C)c(OC)c3C)[nH]c2c1', 'inactive'),
  ('CCNC(=O)NCCCOc1cccc(CN2CCCCC2)c1', 'inactive'),
  ('O=C(CS(=O)Cc1ccco1)NC/C=C\COc1cc(CN2CCCCC2)ccn1 (stereo not given)', 'inactive'),
  ('COC(=O)c1cc(Cl)ccc1OC', 'inactive'),
  ('Cc1cc2nc3ccc(=[N+](C)C)cc-3sc2cc1N', 'active'),
  ('CCOc1c(N2CCOCC2)cnn(C)c1=O', 'inactive'),
  ('O=C(O)Cn1cnnn1', 'inactive'),
  ('CCCCCCCC(=O)[O-].CCCCCCCC(=O)[O-].[Zn+2]', 'inactive'),
  ('Cc1cccc(OCC(O)CNC(C)(C)C)c1C (stereo not given)', 'inactive'),
  ('Cc1ccc(CCn2c3c(c4cc(Cl)ccc42)CN(C)CC3)cn1', 'inactive'),
  ('COC(=O)C1=C(C)NC(C)=C(C(=O)OCCc2ccc(N3CCN(C(c4ccccc4)c4ccccc4)CC3)cc2)C1c1cccc([N+](=O)[O-])c1 (stereo not given)', 'inactive'),
  ('N=C(N)c1ccc(OCCCOc2ccc(C(=N)N)cc2)cc1', 'inactive'),
  ('CCCOc1ccc2c(c1)CC[C@@H]1[C@@H]2CC[C@]2(C)C(OC)CC[C@@H]12 (stereo not given in full)', 'inactive'),
  ('O=C(c1ccco1)N1CCNCC1', 'inactive');

From: PubChem BioAssay (NCATS)
